# assay.system: HCA2/GPR109A (Homo sapiens, UniProt Q8TDS4)
# Construct: expressed in transfected cells; host or cells: Flp-In-293
# Sequence (Q8TDS4 whole entry): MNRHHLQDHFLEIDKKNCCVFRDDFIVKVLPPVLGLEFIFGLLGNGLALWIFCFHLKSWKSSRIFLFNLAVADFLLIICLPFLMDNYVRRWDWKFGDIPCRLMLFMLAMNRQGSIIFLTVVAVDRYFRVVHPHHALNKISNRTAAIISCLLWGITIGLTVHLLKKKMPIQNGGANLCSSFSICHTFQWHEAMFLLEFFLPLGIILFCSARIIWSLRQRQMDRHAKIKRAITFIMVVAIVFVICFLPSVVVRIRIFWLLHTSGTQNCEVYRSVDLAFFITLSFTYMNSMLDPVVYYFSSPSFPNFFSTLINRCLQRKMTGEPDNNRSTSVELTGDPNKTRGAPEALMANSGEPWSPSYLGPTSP
# assay.protocol: forskolin-stimulated cAMP accumulation assay, Flp-In-293 cells stably expressing HCA2/GPR109A
# Assay type: cell-based
experimental.endpoint: EC50 (nM)
Please give a number only; it is taken to be in nM.

Per the record, CCc1cc(=O)oc2[nH]c(=S)[nH]c(=O)c12 [2-2] has EC50 of 490

====

# assay.system: FFA3/GPR41 (Homo sapiens, UniProt O14843)
# Construct: host or cells: Flp-In-293
# Sequence (O14843 1-346): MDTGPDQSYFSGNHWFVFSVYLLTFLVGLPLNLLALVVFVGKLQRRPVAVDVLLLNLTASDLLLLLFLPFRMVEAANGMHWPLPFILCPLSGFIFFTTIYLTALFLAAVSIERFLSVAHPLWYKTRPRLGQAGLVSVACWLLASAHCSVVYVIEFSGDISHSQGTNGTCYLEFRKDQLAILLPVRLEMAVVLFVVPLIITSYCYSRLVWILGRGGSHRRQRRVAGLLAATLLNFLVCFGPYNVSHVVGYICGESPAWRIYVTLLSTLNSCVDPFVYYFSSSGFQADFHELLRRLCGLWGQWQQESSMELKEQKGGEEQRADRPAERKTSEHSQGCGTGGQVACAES
# assay.protocol: forskolin-stimulated cAMP accumulation assay, Flp-In-293 cells stably expressing FFA3/GPR41
# Assay type: cell-based
# particulars: inhibition of forskolin-stimulated cAMP; absence of propionate; mean ± SD; read-out: FFA3/GPR41 EC50
pEC50: −log10 of the molar value.
Output T for pEC50 not less than 6; output F otherwise.

-- ask Form field: pEC50 at least 6? Entry: CCCCc1cc(=O)oc2[nH]c(=S)[nH]c(=O)c12 [2-4]
-- reply T

-- ask Form field: pEC50 at least 6? Entry: CCOC(=O)CSc1nc(=O)c2c(CCCCCl)cc(=O)oc2[nH]1 [3-2]
-- reply F

-- ask Form field: pEC50 at least 6? Entry: O=C(CSc1nc(=O)c2c(CCCCCl)cc(=O)oc2[nH]1)Nc1ccccc1C(=O)O [3-7]
-- reply F

-- ask Form field: pEC50 at least 6? Entry: CCc1cc(=O)oc2[nH]c(=S)[nH]c(=O)c12 [2-2]
-- reply T

-- ask Form field: pEC50 at least 6? Entry: CCCCc1cc(=O)oc2[nH]c(SCC(=O)OCC)nc(=O)c12 [3-1]
-- reply F

-- ask Form field: pEC50 at least 6? Entry: O=c1cc(CCCCCl)c2c(=O)[nH]c(=S)[nH]c2o1 [2-6]
-- reply T

-- ask Form field: pEC50 at least 6? Entry: CC1=C(C(=O)Nc2ccccc2C)C(c2cccs2)C2=C(CCCC2=O)N1 (stereo not drawn) [1-1]
-- reply F

-- ask Form field: pEC50 at least 6? Entry: CC1=C(C(=O)Nc2ccccc2C)C(c2ccco2)C2=C(CCCC2=O)N1 (stereo not drawn) [1-2]
-- reply T

-- ask Form field: pEC50 at least 6? Entry: CC1=C(C(=O)Nc2ccc(Cl)cc2Cl)C(c2ccco2)C2=C(CCCC2=O)N1 (stereo not drawn) [1-4]
-- reply T

-- ask Form field: pEC50 at least 6? Entry: Cc1cc(=O)oc2[nH]c(=S)[nH]c(=O)c12 [2-1]
-- reply F

-- ask Form field: pEC50 at least 6? Entry: CCOC(=O)COC(=O)C1=C(C)NC2=C(C(=O)CCC2)C1c1cccs1 (stereo not drawn) [1-9]
-- reply F

-- ask Form field: pEC50 at least 6? Entry: CC(Sc1nc(=O)c2c(CCCCCl)cc(=O)oc2[nH]1)C(=O)c1ccc(OCc2ccccc2)cc1 (stereo not drawn) [3-4]
-- reply T

-- ask Form field: pEC50 at least 6? Entry: CC1=C(C(=O)Nc2cc(Cl)ccc2Cl)C(c2ccco2)C2=C(CCCC2=O)N1 (stereo not drawn) [1-3]
-- reply T

-- ask Form field: pEC50 at least 6? Entry: O=c1[nH]c(=O)c2c(CCCCCl)cc(=O)oc2[nH]1 [2-7]
-- reply T

These data points were gathered from paper PMC8537386.
